- assayed_system: calpain-I (Sus scrofa, UniProt P35750)
- Construct: purchased CalBiochem
- Sequence (P35750 whole entry): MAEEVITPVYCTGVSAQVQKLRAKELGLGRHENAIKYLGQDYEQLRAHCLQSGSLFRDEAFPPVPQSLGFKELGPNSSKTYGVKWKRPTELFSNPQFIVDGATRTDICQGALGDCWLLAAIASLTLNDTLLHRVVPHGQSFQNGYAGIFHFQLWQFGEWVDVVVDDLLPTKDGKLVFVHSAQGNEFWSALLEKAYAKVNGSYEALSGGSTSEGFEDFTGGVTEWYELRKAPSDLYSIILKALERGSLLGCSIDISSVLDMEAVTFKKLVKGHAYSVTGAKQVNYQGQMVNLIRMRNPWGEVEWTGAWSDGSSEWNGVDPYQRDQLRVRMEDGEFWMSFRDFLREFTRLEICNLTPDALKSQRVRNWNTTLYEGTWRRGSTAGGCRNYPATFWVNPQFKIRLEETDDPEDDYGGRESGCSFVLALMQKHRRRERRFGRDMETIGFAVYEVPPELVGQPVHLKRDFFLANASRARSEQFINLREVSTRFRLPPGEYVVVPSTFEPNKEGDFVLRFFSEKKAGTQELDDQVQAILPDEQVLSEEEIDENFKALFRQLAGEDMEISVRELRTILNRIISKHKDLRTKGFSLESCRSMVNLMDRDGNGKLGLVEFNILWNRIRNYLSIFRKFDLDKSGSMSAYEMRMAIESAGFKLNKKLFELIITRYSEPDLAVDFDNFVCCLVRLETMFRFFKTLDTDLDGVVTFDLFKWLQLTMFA
- Sequence (P04574 whole entry, further chain): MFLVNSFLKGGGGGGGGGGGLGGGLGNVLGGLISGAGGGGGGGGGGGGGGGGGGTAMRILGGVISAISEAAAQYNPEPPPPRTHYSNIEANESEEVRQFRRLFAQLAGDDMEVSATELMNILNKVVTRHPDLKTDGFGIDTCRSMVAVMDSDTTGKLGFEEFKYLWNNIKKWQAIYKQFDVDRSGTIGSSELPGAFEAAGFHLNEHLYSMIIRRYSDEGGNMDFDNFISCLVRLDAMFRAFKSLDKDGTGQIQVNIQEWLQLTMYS
- assay_text: FRET-based calpain-I inhibition assay in the presence and absence of 10 mM DTT
- Type: biochemical, porcine
- assay_conditions: absence of DTT (oxidised disulfide form); compounds left 3 hours in assay solution before the assay; read-out: IC50, Disulfide
IC50 strictly under 20 nM means true; at 20 nM or over means false.

{"columns": ["compound", "label_class"],
 "data": [
  ["O=C(O)/C(=C/c1c[nH]c2ccc(Cl)cc12)SS/C(=C\\c1c[nH]c2ccc(Cl)cc12)C(=O)O [compound 25]", "true"],
  ["O=C(O)/C(=C/c1c[nH]c2ccc(Br)cc12)SS/C(=C\\c1c[nH]c2ccc(Br)cc12)C(=O)O [compound 27]", "true"],
  ["O=C(O)/C(=C/c1ccc(F)cc1)SS/C(=C\\c1ccc(F)cc1)C(=O)O [compound 19]", "false"],
  ["O=C(O)/C(=C/c1ccccc1Br)SS/C(=C\\c1ccccc1Br)C(=O)O [compound 10]", "false"],
  ["O=C(O)/C(=C/c1c[nH]c2c(Cl)cccc12)SS/C(=C\\c1c[nH]c2c(Cl)cccc12)C(=O)O [compound 37]", "false"],
  ["O=C(O)/C(=C/c1c[nH]c2cc(I)ccc12)SS/C(=C\\c1c[nH]c2cc(I)ccc12)C(=O)O [compound 35]", "true"],
  ["O=C(O)/C(=C/c1ccc(Cl)cc1)SS/C(=C\\c1ccc(Cl)cc1)C(=O)O [compound 21]", "true"]
]}

Cited source: paper PMC5508670
